Here, each record is paired with measured IC50 data.
targetOfAssay: recombinant human Lp-PLA2 (Homo sapiens)
testDescription: Recombinant human Lp-PLA2 assay (rhLp-PLA2, PED6 assay)
Assay type: biochemical
protocolConditions: upper limit for pIC50 in this assay is 9.3; read-out: pIC50 values in the PED6 assay (converted)
endpoint: IC50

>>> result("CN1CCCn2c1cc(OCc1ccc(Oc3ccc(Cl)c(C(F)(F)F)c3)cc1)nc2=O")
"≤ 10 nM"
>>> result("N#Cc1cc(COc2cc3n(c(=O)n2)CCCN3)ccc1Oc1ccc(Cl)c(C(F)(F)F)c1")
"≤ 1 nM"
>>> result("O=c1nc(OCc2cc(F)c(Oc3cccc(F)c3)c(F)c2)cc2n1CCCN2")
"≤ 1 nM"
>>> result("CN1CCCn2c1cc(OCc1ccc(Oc3ccc(F)cc3)c(C#N)c1)nc2=O")
"≤ 10 nM"
>>> result("CN1CCCn2c1cc(OCc1cc(F)c(Oc3ccc(F)c(C(F)(F)F)c3)c(F)c1)nc2=O")
"≤ 1 nM"
>>> result("CN1CCCn2c1cc(OCc1cc(F)c(Oc3ccc(F)cc3)c(F)c1)nc2=O")
"≤ 10 nM"
>>> result("O=c1nc(OCc2cc(F)c(Oc3ccc(F)c(F)c3)c(F)c2)cc2n1CCCN2")
"≤ 1 nM"
>>> result("CC(C)N1CCCn2c1cc(OCc1cc(F)c(F)c(F)c1)nc2=O")
"≤ 10 nM"
>>> result("Cc1ccc(Oc2ccc(COc3cc4n(c(=O)n3)CCCN4C)cc2C#N)cn1")
"≤ 1 nM"
>>> result("CN1CCCn2c1cc(OCc1ccc(Oc3ccc(Cl)c(Cl)c3)cc1)nc2=O")
"≤ 1 nM"
>>> result("CN1CCCn2c1cc(OCCc1ccc(Oc3ccc(C(F)(F)F)c(Cl)c3)cn1)nc2=O")
"≤ 10 nM"
>>> result("CN1CCCn2c1cc(OCc1ccc(Oc3ccc(F)cc3)c(F)c1)nc2=O")
"≤ 10 nM"
>>> result("CN1CCCn2c1cc(OCc1ccc(Oc3cccc(F)c3)c(F)c1)nc2=O")
"≤ 10 nM"
>>> result("N#Cc1cc(COc2cc3n(c(=O)n2)CCCN3)ccc1Oc1ccc(C(F)(F)F)cn1")
"≤ 10 nM"
>>> result("O=c1nc(OCc2ccc(Oc3cccc(F)c3)c(F)c2)cc2n1CCCN2")
"≤ 1 nM"
>>> result("O=c1nc(OCc2ccc(Oc3ccc(F)c(C(F)(F)F)c3)cc2)cc2n1CCCN2")
"≤ 1 nM"
>>> result("CN1CCCn2c1cc(OCc1ccc(Oc3cccc(C(F)(F)F)c3)cc1)nc2=O")
"≤ 10 nM"
>>> result("CN1CCCn2c1cc(OCCc1ccc(Oc3cccc(C(F)(F)F)c3)c(F)c1)nc2=O")
"≤ 1 nM"
>>> result("CN1CCCn2c1cc(OCCc1ccc(Oc3ccc(F)c(F)c3)cc1)nc2=O")
"≤ 10 nM"
>>> result("CN1CCCn2c1cc(OCc1cc(F)c(Oc3ccc(C(F)(F)F)nc3)c(F)c1)nc2=O")
"≤ 1 nM"
>>> result("O=c1nc(OCc2cc(F)c(F)c(F)c2)cc2n1CCCN2")
"≤ 10 nM"
>>> result("CN1CCCn2c1cc(OCc1ccc(Oc3ccc(F)c(C(F)(F)F)c3)c(F)c1)nc2=O")
"≤ 10 nM"
>>> result("CN1CCCn2c1cc(OCCc1ccc(Oc3ccc(Cl)c(F)c3)c(F)c1)nc2=O")
"≤ 1 nM"
>>> result("CN1CCCn2c1cc(OCc1ccc(Oc3cc(F)cc(C#N)c3)c(F)c1)nc2=O")
"≤ 1 nM"
>>> result("CN1CCCn2c1cc(OCc1ccc(Oc3ccc(F)c(Cl)c3)c(F)c1)nc2=O")
"≤ 10 nM"
>>> result("CN1CCCn2c1cc(OCc1ccc(Oc3ccc(F)c(F)c3)cc1)nc2=O")
"≤ 10 nM"
>>> result("CN1CCCn2c1cc(OCc1cc(F)c(F)c(F)c1)nc2=O")
"≤ 10 nM"
>>> result("CN1CCCn2c1cc(OCc1ccc(Oc3ccc(F)c(F)c3)c(F)c1)nc2=O")
"≤ 10 nM"
>>> result("CN1CCCn2c1cc(OCc1ccc(Oc3ccc(F)c(Cl)c3)c(C#N)c1)nc2=O")
"≤ 1 nM"
>>> result("CN1CCCn2c1cc(OCCc1ccc(Oc3ccc(Cl)c(C(F)(F)F)c3)cc1)nc2=O")
"≤ 1 nM"
>>> result("CN1CCCn2c1cc(OCc1ccc(Oc3ccc(F)c(Cl)c3)cc1)nc2=O")
"≤ 10 nM"
>>> result("CN1CCCn2c1cc(OCc1ccc(Oc3cc(F)cc(F)c3)c(F)c1)nc2=O")
"≤ 1 nM"
>>> result("CN1CCCn2c1cc(OCc1cc(F)c(Oc3cccc(C(F)(F)F)c3)c(F)c1)nc2=O")
"≤ 1 nM"
>>> result("CN1CCCn2c1cc(OCc1ccc(Oc3cccnc3)c(C#N)c1)nc2=O")
"≤ 10 nM"
>>> result("O=c1nc(OCc2ccc(Oc3ccc(F)c(F)c3)cc2)cc2n1CCCN2")
"≤ 1 nM"

###

targetOfAssay: Lp-PLA2 in human plasma (Homo sapiens)
Construct: from tissue; host or cells: pooled human plasma
Sequence (Q13093 22-441): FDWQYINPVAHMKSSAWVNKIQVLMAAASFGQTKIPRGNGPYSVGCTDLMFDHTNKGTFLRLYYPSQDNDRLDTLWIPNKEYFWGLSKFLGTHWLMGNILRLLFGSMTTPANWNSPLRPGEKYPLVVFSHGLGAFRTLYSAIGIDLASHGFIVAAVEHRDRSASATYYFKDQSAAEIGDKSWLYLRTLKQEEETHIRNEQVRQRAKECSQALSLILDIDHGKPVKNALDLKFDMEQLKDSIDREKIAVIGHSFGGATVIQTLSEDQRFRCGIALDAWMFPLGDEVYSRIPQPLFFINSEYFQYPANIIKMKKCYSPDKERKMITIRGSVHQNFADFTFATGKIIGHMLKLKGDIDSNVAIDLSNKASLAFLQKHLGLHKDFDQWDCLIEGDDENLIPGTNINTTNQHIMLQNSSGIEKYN
testDescription: Lp-PLA2 human plasma assay (Thio-PAF assay)
Assay type: biochemical
protocolConditions: pooled human plasma; read-out: pIC50 values in the thio-PAF assay (converted)
Here, each record is paired with measured IC50 data.
endpoint: IC50

>>> result("CN1CCCn2c1cc(OCc1cc(F)c(Oc3ccc(C(F)(F)F)cc3)c(F)c1)nc2=O")
"≤ 100 nM"
>>> result("CN1CCCn2c1cc(OCc1ccc(Oc3cccc(C#N)c3)c(F)c1)nc2=O")
"≤ 1000 nM"
>>> result("CN1CCCn2c1cc(OCc1ccc(Oc3ccc(C(F)(F)F)cn3)c(C#N)c1)nc2=O")
"≤ 100 nM"
>>> result("N#Cc1ccc(Oc2ccc(COc3cc4n(c(=O)n3)CCCN4)cc2C#N)cc1F")
"≤ 100 nM"
>>> result("CN1CCCn2c1cc(OCc1ccc(Oc3cccc(C(F)(F)F)c3)c(F)c1)nc2=O")
"≤ 100 nM"
>>> result("O=c1nc(OCc2cc(F)c(Oc3ccc(C(F)(F)F)nc3)c(F)c2)cc2n1CCCN2")
"≤ 100 nM"
>>> result("CN1CCCn2c1cc(OCc1ccc(Oc3ccc(F)c(C(F)(F)F)c3)c(F)c1)nc2=O")
"≤ 100 nM"
>>> result("O=c1nc(OCc2ccc(Oc3ccc(F)cc3)c(F)c2)cc2n1CCCN2")
"≤ 100 nM"
>>> result("CN1CCCn2c1cc(OCc1cc(F)c(Oc3ccc(F)c(Cl)c3)c(F)c1)nc2=O")
"≤ 100 nM"
>>> result("CN1CCCn2c1cc(OCCc1ccc(Oc3ccc(Cl)c(F)c3)c(F)c1)nc2=O")
"≤ 1000 nM"
>>> result("CN1CCCn2c1cc(SCc1ccc(F)cc1)nc2=O")
"≤ 1000 nM"
>>> result("O=c1nc(OCCc2ccc(Cl)c(Cl)c2)cc2n1CCCN2")
"≤ 100 nM"
>>> result("CN1CCCn2c1cc(OCc1ccc(Oc3cccc(Cl)c3)c(F)c1)nc2=O")
"≤ 100 nM"
>>> result("CN1CCCn2c1cc(OCc1ccc(Oc3cncnc3)c(C#N)c1)nc2=O")
"≤ 1000 nM"
>>> result("CN1CCCn2c1cc(OCc1cc(F)c(Oc3cccc(F)c3)c(F)c1)nc2=O")
"≤ 1000 nM"
>>> result("CN1CCCn2c1cc(OCc1cc(F)c(Oc3ccc(Cl)c(F)c3)c(F)c1)nc2=O")
"≤ 100 nM"
>>> result("CN1CCCn2c1cc(OCc1ccc(Oc3ccc(Cl)c(C(F)(F)F)c3)cc1)nc2=O")
"≤ 1000 nM"
>>> result("CN1CCCn2c1cc(OCc1cccc(C#N)c1)nc2=O")
"≤ 100 nM"

###

targetOfAssay: recombinant human Lp-PLA2 (Homo sapiens, UniProt Q13093)
Sequence (Q13093 22-441): as above
testDescription: Recombinant human Lp-PLA2 assay (rhLp-PLA2, PED6 assay)
Type: biochemical
protocolConditions: Table 1; upper limit for pIC50 in this assay is 9.3; read-out: rhLp-PLA2 (PED6 assay) (pIC50) (converted)
Here, each record is paired with measured IC50 data.
endpoint: IC50 (nM)

>>> readoutnumber("CC(C)N1CCCn2c1cc(OCc1ccc(F)c(F)c1)nc2=O")
10
>>> readoutnumber("CN1CCCn2c1cc(OCc1ccc(Oc3ccc(C(F)(F)F)cn3)c(C#N)c1)nc2=O")
2.51
>>> readoutnumber("CN1CCCn2c1cc(OCc1cc(F)c(Oc3ccc(C(F)(F)F)nc3)c(F)c1)nc2=O")
1
>>> readoutnumber("N#Cc1cc(COc2cc3n(c(=O)n2)CCCN3)ccc1Oc1cccc(C(F)(F)F)c1")
1
>>> readoutnumber("CN1CCCn2c1cc(OCc1cc(F)c(Oc3cc(F)cc(F)c3)c(F)c1)nc2=O")
0.794
